The entries below come with measured log10(IC50) values attached.
Target: Recombinant truncated stromelysin (human sequence) (Homo sapiens, UniProt P08254)
Construct: made in house; host or cells: E. coli
Sequence (P08254 100-272 limits assumed): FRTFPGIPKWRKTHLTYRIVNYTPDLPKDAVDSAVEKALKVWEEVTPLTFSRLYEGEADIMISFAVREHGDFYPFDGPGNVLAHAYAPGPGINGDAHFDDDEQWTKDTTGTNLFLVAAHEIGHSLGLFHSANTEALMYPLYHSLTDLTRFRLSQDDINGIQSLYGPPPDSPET
Assay: Determination of stromelysin inhibition (cleavage of thiopeptide ester substrate, DTNB colour read at 405 nm)
Type: biochemical
Conditions: substrate Ac-Pro-Leu-Gly-[2-mercapto-4-methylpentanoyl]-Leu-Gly-OEt; 30 minute assay at ambient temperature; 50 mM MES/NaOH pH 6.5 with 10 mM CaCl2 and 0.2% Pluronic F-68
// units: nM (pre-log); metric: IC50; scale: log10

# example entries with known answers
INSERT INTO assay_data (compound, testsystem, measurement) VALUES
  ('CC(COc1ccc(-c2ccc(C#N)cc2)cc1)N(O)C=O (racemic) [Example 13]', 'Recombinant truncated stromelysin (human sequence) (Homo sapiens, UniProt P08254)', 2.49),
  ('N#Cc1ccc(-c2ccc(OCC(c3ccc(F)cc3)N(O)C=O)cc2)cc1 (racemic) [Example 11]', 'Recombinant truncated stromelysin (human sequence) (Homo sapiens, UniProt P08254)', 2.48),
  ('CCCCC(COc1ccc(-c2cccc(CC#N)c2)cc1)N(O)C=O (racemic) [Example 6]', 'Recombinant truncated stromelysin (human sequence) (Homo sapiens, UniProt P08254)', 1.48),
  ('N#Cc1ccc(-c2ccc(OCC(CN3C(=O)c4ccccc4C3=O)N(O)C=O)cc2)cc1 (racemic) [Example 3]', 'Recombinant truncated stromelysin (human sequence) (Homo sapiens, UniProt P08254)', 1.32),
  ('Cc1ccc(CC(COc2ccc(-c3ccc(C#N)cc3)cc2)N(O)C=O)cc1 (racemic) [Example 10]', 'Recombinant truncated stromelysin (human sequence) (Homo sapiens, UniProt P08254)', 3.18),
  ('N#Cc1ccc(-c2ccc(OCC(COc3ccccc3)N(O)C=O)cc2)cc1 (racemic) [Example 1]', 'Recombinant truncated stromelysin (human sequence) (Homo sapiens, UniProt P08254)', 2.11);

Value (log10(IC50), Recombinant truncated stromelysin (human sequence) (Homo sapiens, UniProt P08254)) for record CC(=O)N(O)CCOc1ccc(-c2ccc(C#N)cc2)cc1 [Example 14] = 3.60
